Target: 206-216 stretch of the human α7 nAChR (Homo sapiens, UniProt P36544)
Conditions: 125I-β-amyloid1-40 50 pM; inhibitors 1 uM to 10 uM
Measurement Type: % α7 nAChR 206-216 Binding (%)
Give bare numbers, in %.

// worked examples, % α7 nAChR 206-216 Binding included
{"Compound": "C#CCN(CCC)C1Cc2c(OP(=O)(c3ccccc3)c3ccccc3)ccc(OP(=O)(c3ccccc3)c3ccccc3)c2CC1C (stereo not shown) [Compound 57]", "Measurement Unit": "%", "Value Reported": 63}
{"Compound": "CCCN(CCC)C1Cc2c(O)ccc(OP(=O)(c3ccccc3)c3ccccc3)c2CC1C (stereo not shown) [Compound 58]", "Measurement Unit": "%", "Value Reported": 42}

For every record below, what is its % α7 nAChR 206-216 Binding?
1. CCCN(CCCSC)C1Cc2c(O)ccc(O)c2CC1C (racemic) [Compound 28]
2. COC(=O)[C@H](C)NC1Cc2c(OC)ccc(OC)c2CC1C (stereo partly shown) [Compound 48]

[reply]
34
2

====

Biological target: Aβ aggregation (Homo sapiens, UniProt P05067)
Construct: 100 nM of fluo-Aβ1-40 in 100 μl of each well of the 96-well Synthaloid plate; purchased Amersham Pharmacia Biotech (125I-Aβ1-40); Advanced Bioconcepts (fluo-Aβ1-40)
Sequence (P05067 672-711 limits assumed): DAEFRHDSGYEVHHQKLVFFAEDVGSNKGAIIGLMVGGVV
Experiment: Aβ aggregation assay on Synthaloid plates with labelled Aβ1-40
Format: biochemical
Settings: 10 μM
Protocol: Aβs are known to form aggregates leading to the formation of amyloid plaques that are characteristic of Alzheimer's disease. […] We have validated this aggregation assay using both ^125I-Aβ1-40 and fluo-Aβ1-40 in a buffer containing 50 mM HEPES, pH 7.4, 0.1% BSA, 10% FCS and protease inhibitors. […] The amount of bound protein which represented Aβ aggregation was measured either by scintillation counting or fluorescence measurements.
Measurement Type: % Inh Agg. (conc μM)

{"Compound": "CCCN(CCC(C)CCC=C(C)C)C1Cc2c(OC)ccc(OC)c2CC1C (centres unmarked)", "% Inh Agg. (conc μM)": "50-90 (10) %"}

For every record below, what is its % Inh Agg. (conc μM)?
1. C#CCN(CCC)C1Cc2c(OP(=O)(c3ccccc3)c3ccccc3)ccc(OP(=O)(c3ccccc3)c3ccccc3)c2CC1C (centres unmarked)
2. C#CCN(CCC)C1Cc2c(O)ccc(O)c2CC1C (racemic) [Compound 34]
3. CCCN(Cc1ccc(C)cc1)C1Cc2c(O)ccc(O)c2CC1C (racemic)

[reply]
1: <30 (10) %; 2: 69 (10) %; 3: 60 (10) %

For every record below, what is its % Inh Agg. (conc μM)?
1. CCCN(CCC)C1Cc2c(OC)ccc(OC)c2CC1C (single isomer, unassigned) [Compound 17]
2. CCCN(CCC(C)CCC=C(C)C)C1Cc2c(O)ccc(O)c2CC1C (centres unmarked)
3. CCCCOc1ccc(CN(CCC)C2Cc3c(OC)ccc(OC)c3CC2C)cc1 (racemic)
4. CCCN(CCC)C1Cc2c(OC(=O)C(C)(C)C)ccc(O)c2CC1C (centres unmarked)

[reply]
1. >90 (10) %
2. 50-90 (10) %
3. <30 (10) %
4. 30-50 (10) %

====

Biological target: 206-216 stretch of the human α7 nAChR (Homo sapiens)
Details: 125I-β-amyloid1-40 50 pM; inhibitors 1 uM to 10 uM
Measurement Type: % α7 nAChR 206-216 Binding

For every record below, what is its % α7 nAChR 206-216 Binding?
1. CCCN(Cc1ccccc1)C1Cc2c(O)ccc(O)c2CC1C (racemic)
2. C#CCN(CCC)C1Cc2c(O)ccc(OP(=O)(c3ccccc3)c3ccccc3)c2CC1C (stereo not shown)
3. CCCN(CCC)C1Cc2c(OCC=C(C)C)ccc(O)c2CC1C (racemic)
4. CCCN(CCC)C1Cc2c(OC(=O)C(C)(C)C)ccc(O)c2CC1C (stereo not shown)

[reply]
1. 64%
2. 78%
3. 23%
4. 0%

====

Molecular target: Aβ aggregation (Homo sapiens)
Construct: 100 nM of fluo-Aβ1-40 in 100 μl of each well of the 96-well Synthaloid plate; purchased Amersham Pharmacia Biotech (125I-Aβ1-40); Advanced Bioconcepts (fluo-Aβ1-40)
Test: Aβ aggregation assay on Synthaloid plates with labelled Aβ1-40
Type: biochemical
Conditions: 5 μM
Kindly state % Inh Agg. (conc μM) for each of the entries shown.

For every record below, what is its % Inh Agg. (conc μM)?
1. CCCN(CCCc1ccccc1)C1Cc2c(O)ccc(O)c2CC1C (racemic) [Compound 20]
2. CCCN(CCCc1ccccc1)C1Cc2c(OC)ccc(OC)c2CC1C (racemic) [Compound 19]

[reply]
1: 39 (5) %; 2: 30 (5) %

For every record below, what is its % Inh Agg. (conc μM)?
1. CCCN(Cc1cccs1)C1Cc2c(O)ccc(O)c2CC1C (racemic) [Compound 30]
2. CCCN(CC1CCCCC1)C1Cc2c(OC)ccc(OC)c2CC1C (racemic) [Compound 21]

[reply]
["38 (5) %", "20 (5) %"]

====

Target: alpha-7 nAChRs (Homo sapiens)
Construct: alpha-7 nAChR contained SK-N-MC cell membranes were immobilized; endogenous in cells
Sequence (P05067 672-711): as the sequence (P05067 672-711 limits assumed) above
Test: 125I-Aβ1-40 binding to alpha-7 nAChRs (SK-N-MC cell membranes) on wheat germ agglutinin SPA beads
Conditions: read-out: IC50, inhibition of 125I-Aβ1-40 binding to SK-N-MC cells
Measurement Type: pIC50
One number for each entry, as −log10 of the molar value.

[ask] State the recorded pIC50 for this entry: CCCN(CCC)[C@@H]1Cc2c(O)ccc(O)c2C[C@H]1C (racemic) [Compound 9]
[reply] 9.52

====

Target: 206-216 stretch of the human α7 nAChR (Homo sapiens)
Conditions: 125I-β-amyloid1-40 50 pM; inhibitors 1 uM to 10 uM
Kindly state % α7 nAChR 206-216 Binding for each of the entries shown.
Give bare numbers, in %.

// worked examples, % α7 nAChR 206-216 Binding included
{"Compound": "CCCN(CCC(C)CCC=C(C)C)C1Cc2c(O)ccc(O)c2CC1C (centres unmarked)", "Test System": "206-216 stretch of the human α7 nAChR (Homo sapiens)", "% α7 nAChR 206-216 Binding / %": 0}
{"Compound": "CCCN(Cc1ccc(C)cc1)C1Cc2c(OC)ccc(OC)c2CC1C (racemic)", "Test System": "206-216 stretch of the human α7 nAChR (Homo sapiens)", "% α7 nAChR 206-216 Binding / %": 19}
{"Compound": "CC1Cc2c(O)ccc(O)c2CC1N1CCOCC1 (centres unmarked)", "Test System": "206-216 stretch of the human α7 nAChR (Homo sapiens)", "% α7 nAChR 206-216 Binding / %": 43}

For every record below, what is its % α7 nAChR 206-216 Binding?
1. CCCN(CCC)C1Cc2c(O)ccc(OCC=C(C)C)c2CC1C (racemic)
2. COc1ccc(OC)c2c1C[C@H](C)[C@H](Nc1ccc(OCCN3CCCCC3)cc1)C2 (relative stereo)
3. CCCN(CCC(C)CCC=C(C)C)C1Cc2c(OC)ccc(OC)c2CC1C (centres unmarked)

[reply]
1. 10
2. 0
3. 0

For every record below, what is its % α7 nAChR 206-216 Binding?
1. COc1ccc(OC)c2c1C[C@@H](N1CCOCC1)[C@@H](C)C2 (relative stereo)
2. CCCN(Cc1ccccc1)C1Cc2c(OC)ccc(OC)c2CC1C (racemic)

[reply]
[54, 48]

====

Kindly state % Inh Agg. (conc μM) for each of the entries shown.
Biological target: Aβ aggregation (Homo sapiens)
Construct: 100 nM of fluo-Aβ1-40 in 100 μl of each well of the 96-well Synthaloid plate; purchased Amersham Pharmacia Biotech (125I-Aβ1-40); Advanced Bioconcepts (fluo-Aβ1-40)
Assay: Aβ aggregation assay on Synthaloid plates with labelled Aβ1-40
Type: biochemical
Settings: 10 μM

// worked examples, % Inh Agg. (conc μM) included
{"Molecule": "CCCN(Cc1cccs1)C1Cc2c(OC)ccc(OC)c2CC1C (racemic)", "Test System": "Aβ aggregation (Homo sapiens)", "Value Reported": "12 (10) %"}
{"Molecule": "CCCN(CCC)C1Cc2c(O)ccc(OCC=C(C)C)c2CC1C (racemic)", "Test System": "Aβ aggregation (Homo sapiens)", "Value Reported": "50-90 (10) %"}

For every record below, what is its % Inh Agg. (conc μM)?
1. COC(=O)[C@H](C)NC1Cc2c(OC)ccc(OC)c2CC1C (stereo partly shown)
2. C#CCN(CCC)C1Cc2c(OC)ccc(OC)c2CC1C (racemic)

[reply]
1: <30 (10) %; 2: 34 (10) %

====

Target: Aβ aggregation (Homo sapiens, UniProt P05067)
Construct: 100 nM of fluo-Aβ1-40 in 100 μl of each well of the 96-well Synthaloid plate; purchased Amersham Pharmacia Biotech (125I-Aβ1-40); Advanced Bioconcepts (fluo-Aβ1-40)
Assay: Aβ aggregation assay on Synthaloid plates with labelled Aβ1-40
Assay type: biochemical
Conditions: 10 μM
Measurement Type: % Inh Agg. (conc μM)

{"Compound": "CCCN(Cc1ccc(C)cc1)C1Cc2c(OC)ccc(OC)c2CC1C (racemic)", "Value Reported": "<30(10) %"}

For every record below, what is its % Inh Agg. (conc μM)?
1. CCCN(Cc1ccc(I)cc1)C1Cc2c(OC)ccc(OC)c2CC1C (racemic)
2. CCCN(Cc1ccc(O)cc1)C1Cc2c(O)ccc(O)c2CC1C (racemic)
3. CCCN(CCC)C1Cc2c(OCC=C(C)C)ccc(O)c2CC1C (racemic)
4. C#CCN(CCC)C1Cc2c(O)ccc(O)c2CC1C (racemic) [Compound 32]

[reply]
1: 38 (10) %; 2: <30 (10) %; 3: 50-90 (10) %; 4: 69 (10) %

Reference source: patent US6441049B2
